B1: VH:VL chains; a variant is named by its letters at X, in order (parent)
chain 1: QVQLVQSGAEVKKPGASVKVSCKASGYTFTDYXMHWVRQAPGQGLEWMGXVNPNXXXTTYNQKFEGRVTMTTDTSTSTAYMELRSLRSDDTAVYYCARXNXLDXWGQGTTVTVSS
chain 2: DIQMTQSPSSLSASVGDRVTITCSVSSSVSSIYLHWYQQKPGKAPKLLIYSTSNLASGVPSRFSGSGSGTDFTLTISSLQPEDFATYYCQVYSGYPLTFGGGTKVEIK

Variants of: B1
Assay details: yeast display scFab, FACS + sequencing
Measured parameter: non-specific binding call

mutant_designation=YRREGSAV assay_result=binds
mutant_designation=YRRESAGF assay_result=binds
mutant_designation=SEKKDYSA assay_result="no binding"
mutant_designation=FRGRGSAV assay_result=binds
mutant_designation=FAGGGDGD assay_result="no binding"
mutant_designation=YRGGGDWV assay_result="no binding"
mutant_designation=YRARSAWA assay_result=binds
mutant_designation=YRTRGAGA assay_result=binds
mutant_designation=VRGRSSVV assay_result="no binding"
mutant_designation=FRAGGAVY assay_result=binds
mutant_designation=YRTRSAVV assay_result=binds
